procedure_summary: chemical genetic growth profiling, strain panel (AID 1159580);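 also: tested at 20 µM; growth read once vehicle control cultures reached saturation at 30 °C; 1 = growth at the plate median or of vehicle wells; lower values mean less growth of the strain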
experimental_context: S. cerevisiae deletion strains, growth OD, locus YBL061C, strain skt5
The campaign covered roughly 5,500 compounds. About 2,000 (36%) were called active. About 18% were inconclusive and are not listed. Rule as the data show it: active = normalized growth mostly below about 0.91 (no sharp cut-off); inconclusive = no clear call, values can overlap the other calls; inactive = mostly above about 0.92. Some of the results follow.
Your response should consist of one outcome taken from 1 = active, -1 = inactive

Test call, this molecule: COC(=O)C[C@H]1C(C)(C)[C@@H](OC(C)=O)[C@@H]2CC3=C4CC(=O)O[C@@H](c5ccoc5)[C@]4(C)CCC3[C@@]1(C)C2=O (some centres not stated)
-1

Repeat with CC(=CC1CCC(C)C2CCC(C)=C12)C(=O)O (configuration not stated)
-1

Repeat with COC1=CC23CCCN2CCc2cc4c(cc2C3C1O)OCO4 (configuration not stated)
-1

Repeat with Cn1c(=O)c2c(ncn2C)n(C)c1=O
-1

Repeat with O=C(/C=C/c1ccccc1)c1ccc(O)cc1O
1

Repeat with Cn1c(=O)c2c(ncn2CCO)n(C)c1=O
-1

Repeat with COc1cc(O)c2c(c1)C(=O)c1cc(C)cc(O)c1C2=O
-1

Repeat with Cn1cnc2c1c(=O)[nH]c(=O)n2C
-1

Repeat with Cn1c(=O)[nH]c2nc[nH]c2c1=O
-1

Repeat with CC(=O)Nc1c(I)cc(I)c(C(=O)O)c1I
-1

Repeat with CC(=CC1CCC(C)C2C1=C(C)CC2O)C(=O)O (configuration not stated)
-1

Repeat with O=C(Nc1ccc([N+](=O)[O-])cc1Cl)c1cc(Cl)ccc1O
1

All figures here come from PubChem BioAssay AID1159580.
